# Lookup of reported Kd keyed by entry
# target: T1, human 5T4-His protein (human, UniProt Q13641 32-355)
# T1 construct: also called recombinant 5T4 protein (human 5T4-his tag); human 5T4 protein; not shown: His tag
# T1 sequence (looked up): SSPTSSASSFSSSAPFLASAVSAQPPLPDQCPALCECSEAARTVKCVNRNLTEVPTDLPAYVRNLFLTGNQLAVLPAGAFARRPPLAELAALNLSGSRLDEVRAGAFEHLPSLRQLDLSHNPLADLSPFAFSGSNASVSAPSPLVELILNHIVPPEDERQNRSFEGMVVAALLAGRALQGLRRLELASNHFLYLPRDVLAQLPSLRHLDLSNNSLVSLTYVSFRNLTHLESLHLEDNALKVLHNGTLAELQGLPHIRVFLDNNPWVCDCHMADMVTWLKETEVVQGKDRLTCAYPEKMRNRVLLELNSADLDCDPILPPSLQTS
# assay.remarks: SPR Biacore, Protein A capture
API: value field is a number in nM; no unit string.

| binder | unit.abbreviation | Kd |
| --- | --- | --- |
| Hu14G12-10 (antibody, V domains shown, humanized) VH: EVQLVQSGAEVKKPGATVKISCKVSGYAFSSSWMNWVKQAPGKGLEWIGRIYREDGHTNYNGKFKGRATITADTSTTTAYMELSSLRSEDTAVYFCANGGAMDYWGQGTLVTVSS VL: DIQMTQSPSSLSASVGDRVTITCRASQDISNYLNWYQQKPGKAPKLLIYYTSRLHSGVPSRFSGSGSGTDYTFTISSLQPEDIATYFCQQDNTLPWTFGGGTKLEIK | nM | 2.42 |

Consider the additional binder presented here.
Request the reported Kd associated with Hu14G12-29 (antibody, V domains shown, humanized) VH: QVQLVQSGAEVKKPGASVKVSCKASGYAFSSSWMNWVRQAPGQGLEWMGRIYREDGHTNYNGKFKGRVTMTADKSITTAYMELSRLRSDDTAVYYCANGGAMDYWGQGTLVTVSS VL: DIQMTQSPSSLSASVGDRVTITCRASQDISNYLNWYQQKPGKAPKLLIYYTSRLHSGVPSRFSGSGSGTDYTLTISSLQPEDIATYFCQQDNTLPWTFGGGTKVEIK
2.14
